Provenance of the data: paper PMC5540273

Tested on: GCN2(Kin.Dom.2,S808G);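 note: KINOMEscan kinase panel screen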
Construct: gene EIF2AK4
Conditions: concentration: 1 μM, replicates: in singlicate; n = 1
Label yes (1) for high-side %Inh (at or above 10%) and no (0) for low-side %Inh (below it).

Study these solved cases before continuing.
Answer whether %Inh of COC(=O)Nc1nc2ccc(Oc3ccc(NC(=O)Nc4cc(C(F)(F)F)ccc4F)cc3)cc2n1C.Cl is greater than or equal to 10%.
no (0)

Please give the result for COc1ccc(Nc2nccc(N3CCC(NC(=O)Nc4cccc(OC)c4)C3)n2)cc1 (centres unmarked) too.
no (0)

# iterate: CC(=O)N1CCN(c2ccc(Nc3nccc(-c4sc(C(C)C)nc4-c4cccc(NS(=O)(=O)c5cccc(Cl)c5)c4)n3)cn2)CC1
yes (1)

And the next one, CCn1c(-c2nonc2N)nc2c(C#CC(C)(C)O)ncc(OCCCCN)c21.O=C(O)C(F)(F)F.O=C(O)C(F)(F)F ?
yes (1)

Next record, please: CN1CCN(CCCNc2nccc(-c3c(-c4ccc(F)cc4)nn4cc(C(F)(F)F)ccc34)n2)CC1
no (0)

Next:
hey, is %Inh for this one >= 10%? c1ccc(-c2cnc3nccnn23)cc1
yes (1)
